The measurements presented in this section are drawn from paper PMC9464890.

Biological target: T1, ScpA_(S512A,D783A) (Streptococcus pyogenes, UniProt P15926 31-1032, S512A | D783A)
T1 construct: Made by QuikChange II from pGEX ScpA(31-1032); The active form D783A (S512 intact) was used for activity assays and for the crystal structure 7YZX; also called D783A_(S512A); source: details in Supplemental Information SI1 and SI2
T1 sequence (looked up): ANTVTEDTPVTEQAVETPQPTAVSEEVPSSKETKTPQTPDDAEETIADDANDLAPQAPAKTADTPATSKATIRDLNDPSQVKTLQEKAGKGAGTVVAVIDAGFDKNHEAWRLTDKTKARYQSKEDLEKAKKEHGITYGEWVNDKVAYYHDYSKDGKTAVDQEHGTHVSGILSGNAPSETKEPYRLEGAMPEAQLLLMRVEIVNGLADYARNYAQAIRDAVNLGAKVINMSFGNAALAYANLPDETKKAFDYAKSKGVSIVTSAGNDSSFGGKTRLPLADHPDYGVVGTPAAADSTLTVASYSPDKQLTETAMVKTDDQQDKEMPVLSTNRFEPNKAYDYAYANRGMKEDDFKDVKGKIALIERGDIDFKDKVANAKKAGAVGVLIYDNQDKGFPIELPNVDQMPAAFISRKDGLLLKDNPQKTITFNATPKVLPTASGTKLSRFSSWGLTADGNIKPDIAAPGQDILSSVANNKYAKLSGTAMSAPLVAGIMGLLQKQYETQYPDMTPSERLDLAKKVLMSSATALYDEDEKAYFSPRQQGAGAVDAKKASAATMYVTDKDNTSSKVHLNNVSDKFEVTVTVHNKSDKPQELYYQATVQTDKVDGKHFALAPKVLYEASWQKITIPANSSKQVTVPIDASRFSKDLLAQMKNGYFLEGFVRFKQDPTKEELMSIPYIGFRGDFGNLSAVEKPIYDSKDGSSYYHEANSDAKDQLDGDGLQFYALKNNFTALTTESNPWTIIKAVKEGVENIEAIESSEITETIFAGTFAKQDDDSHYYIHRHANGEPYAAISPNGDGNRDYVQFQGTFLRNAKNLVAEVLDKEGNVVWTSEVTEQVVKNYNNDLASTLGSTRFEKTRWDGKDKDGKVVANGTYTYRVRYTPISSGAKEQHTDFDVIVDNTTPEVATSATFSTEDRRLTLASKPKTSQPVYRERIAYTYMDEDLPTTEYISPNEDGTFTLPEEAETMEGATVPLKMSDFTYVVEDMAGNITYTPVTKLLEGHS
Test: SPR; BIAcore X100, NTA sensor chip with about 20-25 RU of immobilised His-tagged C5a form (ligand), ScpA form flowed as ligate at 30 uL/min, 25 °C, 10 mM Hepes-KOH pH 7.4, 150 mM NaCl, 0.005% Tween 20, 50 uM EDTA; global fit, 1:1 Langmuir model with drifting baseline; triplicate
Details: both partners purified
parameter_measured: Kd (µM)
Output spec: scalar in µM, unitless text.

Reported Kd ( Recombinant human C5a (rhC5a) (natural protein, UniProt P01031 678-751, looked up, human complement C5a anaphylatoxin, residues 1-74 (core 1-67 and tail 68-74); also called full length rhC5a; substrate; not shown: His6, N-terminal, kept) TLQKKIEEIAAKYKHSVVKKCCYDGACVNNDETCEQRAARISLGPRCIKAFTECCVVASQLRANISHKDMQLGR ) = 0.314
